Type: in vivo
Conditions: human, plasma, oral, 30 mg/day
MEASUREMENT NAME: half-life (h)

- COMPOUND: "Cn1cc(-c2cc(S(C)(=O)=O)ccc2OCC2CC2)c2ccccc2c1=O [Trotabresib]"
  MEASUREMENT NAME: "half-life"
  VALUE UNITS: "h"
  VALUE OBSERVED: 46

---

Type: in vivo
Settings: human, plasma, oral, 30 mg/day, GM AUC0-24, plasma, cycle 1 day 4, GM (% GCV)

- ITEM SMILES: "Cn1cc(-c2cc(S(C)(=O)=O)ccc2OCC2CC2)c2ccccc2c1=O"
  AUC(0-t): "11200 ng·h/mL"

This collection of values is drawn from paper PMC10237409.
